B1: CD69 (parent)
chain: FVAENSSLHPESGQENDATSPHFS

variants of: B1; assay: protein stability index of a GFP-peptide fusion (GPS, HEK-293T) (PSI 1-6); higher = more stable; details: c terminus: a fixed tail appended;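 further: lentivirally expressed fusions sorted by FACS into six bins by GFP to DsRed ratio, PSI derived from sequencing read proportions per bin multiplied by bin number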
If the reported protein stability index equals or exceeds 3, assign t. If not, assign f.

| VARIANT NOTATION | CATEGORY LABEL |
| --- | --- |
| V2Y | t |
| P21Q | t |
| Q14W | f |
| S7F | f |
| S24P | f |
| G13V | t |
| P21N | f |
| S20R | f |
| A18R | f |
| A18D | t |
| D17T | f |
| P21W | f |
| F23H | t |
| P10H | t |
| L8D | t |
| T19Y | f |
| N16D | t |
| G13M | t |
| Q14E | t |
| E11W | f |
| T19K | f |
| S7M | f |
| A18C | f |
| F1V | t |
| N5R | f |
| E11N | t |
| V2L | t |
| D17A | t |
| L8R | f |
| N16W | f |
| A18E | t |
| H22K | t |
| F23M | t |
| D17Q | f |
| S7L | f |
| A3N | t |
| H9G | t |
| E11L | f |
| F1T | t |
| S7H | f |
| T19I | t |
| Q14N | f |
| A18I | f |
| F1M | t |
| E11G | f |
| E15H | f |
| Q14L | f |
| G13D | t |
| L8Y | f |
| S12C | f |
| D17F | f |
| F23E | t |
| S24G | t |
| E11P | f |
| H22C | f |
| P21H | f |
| E11H | f |
| F1L | t |
| E15N | f |
| S7P | t |
| S20Q | t |
| P10E | t |
| S6R | f |
| H9Q | t |
| P21E | t |
| T19L | f |
| A3T | t |
| P10Y | t |
| A3C | f |
| P21L | f |
| E15A | f |
| D17Y | f |
| S24H | t |
| T19C | f |
| V2E | t |
| S7T | t |
| E11Q | f |
| E4G | t |
| N5I | f |
| S7I | f |
| H22R | t |
| S6G | t |
| H9I | f |
